B1: glmS ribozyme (parent)
chain: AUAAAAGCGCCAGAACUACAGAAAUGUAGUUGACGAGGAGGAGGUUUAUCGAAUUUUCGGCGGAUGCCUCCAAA

Variants of: B1
Assay: self-cleavage kobs at 40 uM GlcN6P; higher = faster cleavage; RNA array
Conditions: with glucosamine-6-phosphate
Fewer inactive variants are shown than the library holds.
# Lookup of reported self-cleavage kobs at 40 uM GlcN6P keyed by entry

Here's what some known entries look like.
{"columns": ["INPUT_SEQUENCE", "self-cleavage kobs at 40 uM GlcN6P"],
 "data": [
  ["AUAAAAGCGCCUGAACUACAGAAAUGUAGUUGACGGGGAGGAGGUUUAUCGAAUUUUCGGCGGAUGCCUCCAAA [A12U A36G]", "< 1e-05 s⁻¹"],
  ["AUAAAAGCGCCAGAACUACAGAAAUGUAGUUGACGAGGAGGAGGUUUAUCGAAUUUUCGACGGAUGCCUCUAAA [G60A C71U]", "< 1e-05 s⁻¹"],
  ["AUAAAAGCGCCAGAGCUACAGAAAUGUAGUUGACGAGGAGGAGGUUUAUCGAAUUUUCGGCGGAAGCCUCAAAA [A15G U65A C71A]", "3.84e-05 s⁻¹"],
  ["AUAAAAGCGUCAGAACUACAGAAAUGUAGUUGACGAGGAUGAGGUUUACCGAAUUUUCGGCGGAUGCCUACAAA [C10U G40U U49C C70A]", "< 1e-05 s⁻¹"],
  ["AUAAAAGCGCCAGAACUACAGAAAUGUAGUUGACGAGGAGGAGGUUUCUCGAAUUUUCGGCGGAUGCCCCCAAA [A48C U69C]", "< 1e-05 s⁻¹"]
]}

Data request: I would be grateful if you could share the reported self-cleavage kobs at 40 uM GlcN6P for AUAAAAGCGCCAGAACUACAGAAAUGUAGUAGACGAGGCGGAGGUUUAUCGAAUUUUCGGCGGAUGCCUCCAAA [U31A A39C] .
Data returned: 5.43e-05 s⁻¹

Data request: I would be grateful if you could share the reported self-cleavage kobs at 40 uM GlcN6P for AUAAAAGCGCUAGAACUACAGAAAUGUAGUUGACGAGGAGGAGGUUUAUCGAAUAUUCGGCGGAUGCCUCCAAA [C11U U55A] .
Data returned: 6.97e-05 s⁻¹

Data request: I would be grateful if you could share the reported self-cleavage kobs at 40 uM GlcN6P for AUAAAAGCGCCAGAACUACAGAAAUGUAGUUGACGAGGAGGAGGUUUAUCGAAUCUUCGUCGGAUGCUUCCAAA [U55C G60U C68U] .
Data returned: < 1e-05 s⁻¹
